A collection of compounds and their measured pKi
measured target: PTP1B (PTP1B1-321) (Homo sapiens)
Construct: His-tag; made in house; host or cells: E. coli BL21 (DE3), pET21b
Sequence (P18031 1-321): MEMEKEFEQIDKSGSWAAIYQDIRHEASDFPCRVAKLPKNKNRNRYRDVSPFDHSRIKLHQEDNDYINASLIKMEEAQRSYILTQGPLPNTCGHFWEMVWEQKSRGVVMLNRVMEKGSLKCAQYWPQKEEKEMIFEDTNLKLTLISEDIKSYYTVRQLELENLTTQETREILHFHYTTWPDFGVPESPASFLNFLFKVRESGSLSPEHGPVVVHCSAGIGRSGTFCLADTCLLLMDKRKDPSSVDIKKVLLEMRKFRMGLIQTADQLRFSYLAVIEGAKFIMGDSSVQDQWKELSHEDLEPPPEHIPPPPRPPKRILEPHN
assay: PTP1B-catalyzed hydrolysis of pNPP in the presence of terpenoids (enzyme kinetics, IC50 from best-fit models)
Type: biochemical, H. sapiens
experimental setup: PTP1B1-321; mixed model, competitive constant; read-out: Fit par. Ki,c, mixed model
// scale note: pKi = -log10(conc_M); give the bare number

The cases that follow already have their pKi on record.
1. CC1=C[C@@H]2C(=C(C)CC[C@H]2C(C)C)CC1 [(+)-1 (10),4-cadinadiene] :: 2.24
2. C=C(C)[C@@H]1CC[C@@H](C)[C@@H]2CCC(C)=C[C@@H]21 [amorphadiene] :: 4.06

Now look at this one.
q: Consider the compound CC(C)=CCC=C(C)C1CC=C(C)CC1 (stereo not drawn) [α-bisabolene] and give its measured pKi.
a: 5.02

###

measured target: PTP1B (PTP1B1-321) (Homo sapiens, UniProt P18031)
Construct: His-tag; made in house; host or cells: E. coli BL21 (DE3), pET21b
assay: PTP1B-catalyzed hydrolysis of pNPP in the presence of terpenoids (enzyme kinetics, IC50 from best-fit models)
Assay type: biochemical, H. sapiens
experimental setup: PTP1B1-321; noncompetitive model of inhibition; read-out: Fit par. Ki, noncompetitive model
test readout: pKi
// scale note: pKi = -log10(conc_M); give the bare number

1. CC(C)=CCC=C(C)C1CC=C(C)CC1 (centres unmarked) :: 4.88
2. CC1=C[C@@H]2C(=C(C)CC[C@H]2C(C)C)CC1 [(+)-1 (10),4-cadinadiene] :: 3.72
3. CC(C)=CCC[C@](C)(O)[C@@H]1CC=C(C)CC1 [α-bisabolol, reference compound] :: 3.27
4. CC1=C[C@H]2[C@@H](CC1)[C@H](C)CC[C@H]2[C@@H](C)C(=O)O [dihydroartemisinic acid, reference compound] :: 3.27

Now look at this one.
q: Enter reported pKi observed with PTP1B (PTP1B1-321) (Homo sapiens, UniProt P18031) for C=C(C)[C@@H]1CC[C@@H](C)[C@@H]2CCC(C)=C[C@@H]21
a: 4.28

###

A collection of molecules and their measured Ki
measured target: TC-PTP (TCPTP1-317; TCPTP292 in FIG. 12) (Mus musculus)
Construct: His-tag; made in house; host or cells: E. coli BL21 (DE3), pET16b
Sequence (Q06180 1-317): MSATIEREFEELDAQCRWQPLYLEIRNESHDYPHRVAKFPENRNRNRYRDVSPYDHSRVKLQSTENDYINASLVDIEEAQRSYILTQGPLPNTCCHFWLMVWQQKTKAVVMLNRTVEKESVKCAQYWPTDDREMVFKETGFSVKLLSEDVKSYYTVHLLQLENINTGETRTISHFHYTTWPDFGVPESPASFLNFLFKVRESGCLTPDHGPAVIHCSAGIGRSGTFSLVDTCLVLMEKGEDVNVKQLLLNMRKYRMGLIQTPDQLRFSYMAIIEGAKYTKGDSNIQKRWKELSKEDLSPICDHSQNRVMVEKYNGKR
assay: TC-PTP-catalyzed hydrolysis of pNPP in the presence of terpenoids
Assay type: biochemical, H. sapiens
experimental setup: TCPTP1-317; noncompetitive model of inhibition; read-out: Fit par. Ki, noncompetitive model
Hey, just the number and the unit after it is fine.

1. CC(C)=CCC=C(C)C1CC=C(C)CC1 (centres unmarked) :: 76.2 µM

q: Enter reported Ki observed with TC-PTP (TCPTP1-317; TCPTP292 in FIG. 12) (Mus musculus) for C=C(C)[C@@H]1CC[C@@H](C)[C@@H]2CCC(C)=C[C@@H]21
a: 400 µM

###

measured target: SHP2 (SHP2223-565) (Homo sapiens, UniProt Q06124)
Construct: made in house; host or cells: E. coli BL21 (DE3)
Sequence (Q06124 223-565 limits assumed): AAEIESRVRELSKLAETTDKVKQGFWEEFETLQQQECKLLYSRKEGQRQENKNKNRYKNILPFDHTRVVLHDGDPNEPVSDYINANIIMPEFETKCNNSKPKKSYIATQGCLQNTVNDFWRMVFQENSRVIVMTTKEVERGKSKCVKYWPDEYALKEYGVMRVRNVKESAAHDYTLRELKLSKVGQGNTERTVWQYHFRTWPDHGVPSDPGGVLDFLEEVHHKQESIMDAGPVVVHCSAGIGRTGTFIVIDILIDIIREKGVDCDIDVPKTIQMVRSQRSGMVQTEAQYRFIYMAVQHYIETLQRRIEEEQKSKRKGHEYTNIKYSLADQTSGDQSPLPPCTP
assay: SHP2-catalyzed hydrolysis of 4-MUP in the presence of terpenoids
Format: biochemical, H. sapiens
experimental setup: SHP2223-565; mixed model, uncompetitive constant; read-out: Fit par. Ki,u, mixed model
test readout: pKi
// scale note: pKi = -log10(conc_M); give the bare number

q: Enter reported pKi observed with SHP2 (SHP2223-565) (Homo sapiens, UniProt Q06124) for C=C(C)[C@@H]1CC[C@@H](C)[C@@H]2CCC(C)=C[C@@H]21 [amorphadiene]
a: 3.88

###

A collection of molecules and their measured pKi
measured target: TCPTP1-281
assay: pNPP hydrolysis by TC-PTP lacking the α7-equivalent region
Assay type: biochemical, H. sapiens
experimental setup: TCPTP1-281; noncompetitive model of inhibition; read-out: Fit par. Ki, noncompetitive model
// scale note: pKi = -log10(conc_M); give the bare number

1) CC(C)=CCC=C(C)C1CC=C(C)CC1 (centres unmarked) :: 4.12

Now look at this one.
q: Enter reported pKi observed with TCPTP1-281 for C=C(C)[C@@H]1CC[C@@H](C)[C@@H]2CCC(C)=C[C@@H]21
a: 3.40

###

measured target: TC-PTP (TCPTP1-317; TCPTP292 in FIG. 12) (Mus musculus)
Construct: His-tag; made in house; host or cells: E. coli BL21 (DE3), pET16b
assay: TC-PTP-catalyzed hydrolysis of pNPP in the presence of terpenoids
Assay type: biochemical, H. sapiens
experimental setup: TCPTP1-317; mixed model, uncompetitive constant; read-out: Fit par. Ki,u, mixed model
A collection of molecules and their measured pKi
// scale note: pKi = -log10(conc_M); give the bare number

1) CC(C)=CCC=C(C)C1CC=C(C)CC1 (centres unmarked) :: 4.16

q: Consider the molecule C=C(C)[C@@H]1CC[C@@H](C)[C@@H]2CCC(C)=C[C@@H]21 and give its measured pKi.
a: 3.45

###

measured target: PTP1B (PTP1B1-321) (Homo sapiens, UniProt P18031)
Construct: His-tag; made in house; host or cells: E. coli BL21 (DE3), pET21b
Sequence (P18031 1-321): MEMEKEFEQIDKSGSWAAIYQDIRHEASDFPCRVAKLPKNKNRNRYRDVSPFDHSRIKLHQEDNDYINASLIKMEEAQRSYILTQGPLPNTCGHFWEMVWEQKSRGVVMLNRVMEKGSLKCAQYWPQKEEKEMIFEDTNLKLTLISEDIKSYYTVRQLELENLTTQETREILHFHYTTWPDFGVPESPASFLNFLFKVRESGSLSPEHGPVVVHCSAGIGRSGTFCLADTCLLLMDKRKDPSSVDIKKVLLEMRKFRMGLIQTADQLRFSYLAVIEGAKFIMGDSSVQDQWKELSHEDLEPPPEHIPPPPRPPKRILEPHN
assay: PTP1B-catalyzed hydrolysis of pNPP in the presence of terpenoids (enzyme kinetics, IC50 from best-fit models)
Type: biochemical, H. sapiens
experimental setup: PTP1B1-321; uncompetitive model of inhibition; read-out: Fit par. Ki, uncompetitive model
A collection of molecules and their measured Ki
Report as a plain number; the unit µM is understood.

The cases that follow already have their Ki on record.
1. CC1=C[C@@H]2C(=C(C)CC[C@H]2C(C)C)CC1 [(+)-1 (10),4-cadinadiene] :: 168
2. CC(C)=CCC=C(C)C1CC=C(C)CC1 (centres unmarked) :: 11.7
3. CC1=C[C@H]2[C@@H](CC1)[C@H](C)CC[C@H]2[C@@H](C)C(=O)O [dihydroartemisinic acid, reference compound] :: 469
4. C=C(C)[C@@H]1CC[C@@H](C)[C@@H]2CCC(C)=C[C@@H]21 :: 46.3

Now look at this one.
q: Consider the molecule CC(C)=CCC[C@](C)(O)[C@@H]1CC=C(C)CC1 [α-bisabolol, reference compound] and give its measured Ki.
a: 469
